Where these numbers come from: PubChem BioAssay AID366

Molecular target: Ribonuclease H1 (Homo sapiens) (UniProt O60930)
Sequence (O60930 whole entry, looked up): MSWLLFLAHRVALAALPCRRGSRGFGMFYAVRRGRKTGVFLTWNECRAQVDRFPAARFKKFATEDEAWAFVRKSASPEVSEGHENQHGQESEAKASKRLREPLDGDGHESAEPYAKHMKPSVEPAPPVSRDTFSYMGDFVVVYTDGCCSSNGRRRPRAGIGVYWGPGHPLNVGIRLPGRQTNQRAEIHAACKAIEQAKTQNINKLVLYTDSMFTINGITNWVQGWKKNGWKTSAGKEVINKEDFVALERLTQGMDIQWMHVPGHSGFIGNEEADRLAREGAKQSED
Assay: inhibition of human ribonuclease H1 activity – biochemical, FRET RNA/DNA duplex cleavage, dose response (AID 366);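 further: potency is for inhibitors that lower RNA cleavage and so lower fluorescence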
Settings: human RNase H1, FRET RNA/DNA duplex cleavage, fluorescence
Calls of active or inactive are those of the source. How the calls were made is not given here.
Outcomes: TRUE (active), FALSE (inactive)

>>> category("O=C1/C(=C\\c2ccc(O)c(O)c2)SC(=S)N1c1cccc(Cl)c1")
"TRUE"
>>> category("Cc1sc(NC(=O)c2ccco2)c(C(N)=O)c1C")
"FALSE"
>>> category("Nc1c(S(=O)(=O)O)cc(Nc2cccc(S(N)(=O)=O)c2)c2c1C(=O)c1ccccc1C2=O")
"TRUE"
>>> category("O=C1C(Cl)=CC(=NS(=O)(=O)c2ccccc2)C=C1Cl")
"TRUE"

---

Target: Ribonuclease H1 (Homo sapiens) (UniProt O60930)
Test: inhibition of human ribonuclease H1 activity – biochemical, FRET RNA/DNA duplex cleavage, dose response (AID 366);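 further: potency is for inhibitors that lower RNA cleavage and so lower fluorescence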
Conditions: human RNase H1, FRET RNA/DNA duplex cleavage, fluorescence
The source made the active and inactive calls. No rule for the calls is given here.
Outcomes: active, inactive

>>> category("O=S(=O)(O)c1cc(N=[N+]([O-])c2cc(S(=O)(=O)O)c3ccccc3c2)cc2ccccc12")
"active"
>>> category("O=C1c2ccccc2C(=O)c2c(NC3CCCCC3)ccc(Nc3ccc(S(=O)(=O)O)cc3)c21")
"active"
>>> category("Cc1ccc(-n2c(/C=C/c3ccc(O)c(O)c3)nc3ccccc3c2=O)cc1")
"active"
>>> category("Cc1ccc(NC(=O)c2c(NC(=O)c3ccccc3F)sc3c2CCCCC3)cc1")
"active"
>>> category("O=C1C(Cl)=C(NC(=O)c2ccccc2)C(=O)C(Cl)=C1NC(=O)c1ccccc1")
"inactive"

---

Biological target: Ribonuclease H1 (Homo sapiens)
ENDPOINT NAME: IC50

>>> result("O=C1NC(=S)N(c2ccccc2F)C(=O)C1=Cc1ccco1")
"200 nM"
>>> result("COC(=O)c1cc2c3c(ccc2[nH]1)N(C(=O)c1cc2c4c(ccc2[nH]1)N(C(=O)c1cc2c5c(ccc2[nH]1)N(C(N)=O)CC5)CC4)CC3")
"800 nM"
>>> result("COC([CH2][Hg][n]1cnc2c1c(=O)n(C)c(=O)n2C)CN1C(=O)c2ccccc2S1(=O)=O (stereo not drawn)")
"3300 nM"

---

Target: Ribonuclease H1 (Homo sapiens)
Assay: inhibition of human ribonuclease H1 activity – biochemical, FRET RNA/DNA duplex cleavage, dose response (AID 366);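 further: potency is for inhibitors that lower RNA cleavage and so lower fluorescence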
Details: human RNase H1, FRET RNA/DNA duplex cleavage, fluorescence
The source made the active and inactive calls. How the calls were made is not given here.
Outcomes: Yes = active, No = inactive

>>> category("CN1CC(O)C2=CC(=O)C(=O)C=C21 (stereo not drawn)")
"Yes"
>>> category("O=C(O)C1Nc2c(Cl)cc(Cl)cc2C2C=CCC12 (stereo not drawn)")
"Yes"
>>> category("CC1Oc2cc3c(-c4c(O)cc(O)c5c(O)c6c(cc45)OC(C)C(C)C6=O)c(O)cc(O)c3c(O)c2C(=O)C1C (stereo not drawn)")
"Yes"
>>> category("NC(=O)c1c(NC(=O)CCc2ccccc2)sc2c1CCCCCC2")
"Yes"
>>> category("O=C1c2ccccc2C(=O)c2c1cc(O)c(O)c2O")
"Yes"
>>> category("CCOC(=O)Oc1c(OC)cc(C(=O)O[C@@H]2C[C@@H]3CN4CCc5c([nH]c6cc(OC)ccc56)[C@H]4C[C@@H]3[C@H](C(=O)OC)[C@H]2OC)cc1OC")
"No"
>>> category("Oc1cc(O)c2c(c1)OC(c1ccc(O)c(O)c1)C(OC1(c3cc(O)c(O)c(O)c3)Oc3cc(O)cc(O)c3C(O)C1O)C2 (stereo not drawn)")
"Yes"
>>> category("Cc1cc(C)c2c(=O)[nH]c(SCC(=O)c3ccc(O)c(O)c3)nc2n1")
"Yes"

---

Target: UniProt O60930
Assay: inhibition of human ribonuclease H1 activity – biochemical, FRET RNA/DNA duplex cleavage, dose response (AID 366);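 further: potency is for inhibitors that lower RNA cleavage and so lower fluorescence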
Conditions: human RNase H1, FRET RNA/DNA duplex cleavage, fluorescence
Calls of active or inactive are those of the source. The rule behind the calls is not given here.
Outcomes: t = active, f = inactive

>>> category("Nc1cc(S(N)(=O)=O)ccc1SSc1ccc(S(N)(=O)=O)cc1N")
"f"
>>> category("O=C1C(Cl)=C/C(=N\\S(=O)(=O)c2ccccc2)C(Cl)=C1Cl")
"t"
>>> category("COc1ccc(NC(=O)c2c(N)sc(-c3ccccc3)c2C)cc1")
"t"
>>> category("C=CCn1c(N)c(-c2nc3ccccc3[nH]2)sc1=S")
"f"
>>> category("CC1=c2c(oc3cc(O)c(Nc4c(C)cc(O)cc4O)c(C)c23)=CC(=O)C1=Nc1c(C)cc(O)cc1O")
"t"
>>> category("COc1ccc(C(=O)NC(=S)Nc2ccc3nn(-c4ccc(C)c(Cl)c4)nc3c2)cc1[N+](=O)[O-]")
"t"
>>> category("Cc1ccc(C)n1-c1ccc(Br)cc1C(=O)O")
"t"
>>> category("O=C1c2cc([N+](=O)[O-])ccc2-c2ccc3c4ccc5c6c(ccc(c7ccc1c2c73)c64)C(=O)c1cc([N+](=O)[O-])ccc1-5")
"t"
>>> category("O=C1NC(=S)N(c2ccc(Cl)cc2)C(=O)/C1=C\\C=C\\c1ccccc1[N+](=O)[O-]")
"t"
>>> category("O=C1/C(=C/c2ccc(O)c(O)c2)SC(=S)N1C1CCCCC1")
"t"
>>> category("O=[N+]([O-])c1ccc2c(N=Nc3ccc4ccccc4c3O)c(O)cc(S(=O)(=O)O)c2c1")
"t"
>>> category("O=C(NC(=S)Nc1cc(-c2nc3ccccc3s2)ccc1Cl)c1ccc(F)cc1")
"t"
>>> category("Nc1ccc(S(=O)(=O)O)c2cccc(O)c12")
"t"
>>> category("N#C/C(=C\\Nc1ccc(S(=O)(=O)Nc2nccs2)cc1)c1nc(-c2ccc(Cl)cc2)cs1")
"t"
>>> category("CN(C)CN1CSC(=S)N(CN(C)C)C1")
"f"
>>> category("O=C(N/N=C/c1ccccc1Cl)c1cc(O)c(O)c(O)c1")
"f"
>>> category("COc1cc(C=O)ccc1OCCCOc1cccc(Oc2ccccc2)c1")
"t"
>>> category("C[C@H]1[C@H](O)c2c(c3c(c4c(-c5ccccc5)cc(=O)oc24)OC(C)(C)C=C3)O[C@@H]1C")
"t"
>>> category("COc1ccccc1N=C(NOCc1ccc(Cl)cc1Cl)c1nonc1N")
"t"
>>> category("C=CCN1C(=O)/C(=C\\c2ccc([N+](=O)[O-])o2)C(=O)NC1=S")
"f"
>>> category("NC(=O)c1c(NC(=O)COc2ccccc2)sc2c1CCCCC2")
"t"
>>> category("Cc1nn(CC(=O)Nc2sc(C)c(C)c2C(N)=O)c(C)c1[N+](=O)[O-]")
"t"
>>> category("O=C1NC(=S)S/C1=C/c1cccc(OCc2ccc(Cl)c(Cl)c2)c1")
"t"
>>> category("COC(=O)c1cc2cc3cc4cc(CC(=O)O)c(C(=O)/C=C(\\O)c5ccccc5O)c(OC)c4c(OC)c3c(O)c2c(=O)o1")
"t"
>>> category("Cc1ccc(-c2n[nH]c(=S)n2/N=C/c2ccc(O)c(O)c2O)cc1")
"f"
>>> category("Oc1ccc(/C=N/Nc2nncc(-c3ccccc3)n2)c(O)c1O")
"t"
>>> category("c1ccc(C(c2cccc3c2ccc2ccccc23)C(c2ccccc2)c2cccc3c2ccc2ccccc23)cc1 (centres undefined)")
"t"
>>> category("Cc1cc(=O)c2c(O)c3c(O)cc(O)c4c5c(O)cc(O)c6c(O)c7c(=O)cc(C)c8c1c2c(c34)c(c65)c78")
"t"
>>> category("S=C(Nc1ccc2c(c1)Cc1ccccc1-2)Nc1ccc2c(c1)Cc1ccccc1-2")
"t"
>>> category("Cc1cc(-c2ccco2)c(C#N)c(SCC(=O)c2ccc(O)c(O)c2)n1")
"t"
>>> category("O=c1oc2ccccc2c(O)c1/C=C1\\C=Nc2ccccc21")
"t"
>>> category("CCC(=O)Nc1sc2c(c1C(=O)Nc1ccc(OC)cc1)CCCCC2")
"t"
>>> category("Cc1ccc(C2COc3cc(O)c(O)cc3C2)cc1 (centres undefined)")
"t"
>>> category("C=C1C(=O)O[C@@H]2/C=C(\\C)CC/C=C(\\C(=O)O)CC/C=C(\\C)CC[C@H]12")
"t"
>>> category("CCN1C(=O)/C(=C/c2ccoc2)C(=O)NC1=S")
"f"
>>> category("Cc1cc(O)c2c(c1O)C(=O)c1cccc(O)c1C2=O")
"f"
>>> category("CC1C2C=CC1C(c1c3ccc(=O)c(O)c-3oc3c(O)c(O)ccc13)C2C(=O)O (centres undefined)")
"t"
>>> category("CCOc1ccc(C2=CC(=O)C=CC2=O)cc1")
"t"
>>> category("COc1ccccc1NC(=O)c1c(NC(=O)Cc2ccccc2)sc2c1CCCCC2")
"t"
